Here, each record is paired with measured pKd data.
- target.of.assay: NLpoly 11S (Oplophorus gracilirostris, UniProt Q9GV45, A31E/A60N/A81I/D135N/F58L/F95D/G184S/G42A/G62A/G78A/G94A/G98A/H120P/I103V/I117V/I134L/K70R/L176M/L26M/L54V/L73R/L99Q/M102E/N171T/P142E/Q151K/Q38E/Q45L/T27V/V71I/Y165I)
- Sequence (Q9GV45 26-184 with the stated changes limits assumed): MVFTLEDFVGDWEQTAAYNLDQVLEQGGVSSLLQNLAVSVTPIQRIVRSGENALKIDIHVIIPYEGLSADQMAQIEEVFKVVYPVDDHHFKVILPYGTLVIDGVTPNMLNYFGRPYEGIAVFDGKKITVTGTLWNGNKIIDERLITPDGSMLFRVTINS
- protocol.description: biochemical
- Format: binding
# pKd is unitless: minus log10 of the molar concentration; print number only

Ac-VEGYRLFKKEL-NH2 [array2.84, VEGYRLFKKEL] ... 5.85

get_value(item= Ac-VEGYRLFQKIS-NH2 [array2.64, VEGYRLFQKIS] , readout=pKd) returns 6.23

get_value(item= Ac-VTGYRLFKQIS-NH2 [array2.4, VTGYRLFKQIS] , readout=pKd) returns 6.13

get_value(item= Ac-VEGYRLFKEEL-NH2 [array2.90, VEGYRLFKEEL] , readout=pKd) returns 4.00

###

- target.of.assay: NLpoly 11S (Oplophorus gracilirostris, UniProt Q9GV45, A31E/A60N/A81I/D135N/F58L/F95D/G184S/G42A/G62A/G78A/G94A/G98A/H120P/I103V/I117V/I134L/K70R/L176M/L26M/L54V/L73R/L99Q/M102E/N171T/P142E/Q151K/Q38E/Q45L/T27V/V71I/Y165I)
- protocol.description: biochemical
- Type: binding
pKd: −log10 of the molar value.
Quick rule for you: pKd at 5 or higher means label 1, lower means label 0.

// below: answered substances
Ac-VEGYRLFQKES-NH2 [array2.66, VEGYRLFQKES] ... label 1
Ac-VTGYRLFQEES-NH2 [array2.18, VTGYRLFQEES] ... label 0
Ac-VEGYRLFQKAL-NH2 [array2.92, VEGYRLFQKAL] ... label 1

Next:
Reported pKd reaches at least 5 for Ac-VTGYRLFKQAL-NH2 [array2.32, VTGYRLFKQAL] ?
label 1

###

- target.of.assay: NLpoly 11S (Oplophorus gracilirostris, UniProt Q9GV45, A31E/A60N/A81I/D135N/F58L/F95D/G184S/G42A/G62A/G78A/G94A/G98A/H120P/I103V/I117V/I134L/K70R/L176M/L26M/L54V/L73R/L99Q/M102E/N171T/P142E/Q151K/Q38E/Q45L/T27V/V71I/Y165I)
- protocol.description: biochemical
- Assay type: binding
reported.property: Kd (µM)
Reply with just the number (in µM).

Completed entries (count: 4):
Ac-VEGYRLFQQAS-NH2 [array2.68, VEGYRLFQQAS] ... 20
Ac-VEGYRLFEKIL-NH2 [array2.100, VEGYRLFEKIL] ... 10.6
Ac-VTGYRLFEQAL-NH2 [array2.50, VTGYRLFEQAL] ... 40.4
Ac-VTGYRLFQKIS-NH2 [array2.10, VTGYRLFQKIS] ... 0.0812

get_value(item= Ac-VTGYRLFEQIL-NH2 [array2.49, VTGYRLFEQIL] , readout=Kd) returns 124

get_value(item= Ac-VEGYRLFKKIS-NH2 [array2.55, VEGYRLFKKIS] , readout=Kd) returns 0.078

get_value(item= Ac-VEGYRLFQEIS-NH2 [array2.70, VEGYRLFQEIS] , readout=Kd) returns 230
